Reference source: BindingDB's records for doi:10.1021/jm030913e

- Tested on: Synaptic vesicle glycoprotein 2A (Rattus norvegicus, UniProt Q02563)
- Sequence (Q02563 whole entry): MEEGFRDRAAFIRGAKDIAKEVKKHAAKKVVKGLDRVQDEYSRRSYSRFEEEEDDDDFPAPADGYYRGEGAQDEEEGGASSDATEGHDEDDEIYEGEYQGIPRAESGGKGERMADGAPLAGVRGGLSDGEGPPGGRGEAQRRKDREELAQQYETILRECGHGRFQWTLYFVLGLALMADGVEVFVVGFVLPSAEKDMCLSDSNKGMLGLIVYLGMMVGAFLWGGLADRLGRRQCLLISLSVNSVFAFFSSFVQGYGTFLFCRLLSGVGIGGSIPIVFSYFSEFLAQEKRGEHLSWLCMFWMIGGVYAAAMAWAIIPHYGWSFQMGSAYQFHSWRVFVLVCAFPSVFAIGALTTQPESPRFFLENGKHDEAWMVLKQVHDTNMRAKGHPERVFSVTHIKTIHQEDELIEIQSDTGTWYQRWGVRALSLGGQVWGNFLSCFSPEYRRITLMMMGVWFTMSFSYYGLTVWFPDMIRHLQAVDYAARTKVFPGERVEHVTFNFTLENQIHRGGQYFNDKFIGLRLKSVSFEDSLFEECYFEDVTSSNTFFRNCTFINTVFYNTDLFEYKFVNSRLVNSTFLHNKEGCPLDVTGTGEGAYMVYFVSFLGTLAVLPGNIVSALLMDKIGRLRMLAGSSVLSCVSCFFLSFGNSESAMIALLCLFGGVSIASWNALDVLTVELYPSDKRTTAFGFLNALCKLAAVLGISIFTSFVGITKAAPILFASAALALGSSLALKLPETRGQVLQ
- Test details: In vitro inhibitory activity against [3H](2S)-2-[4-(3-azidophenyl)-2-oxopyrrolidin-1-yl]butanamide binding to levetiracetam binding site
Kindly state IC50 for each of the entries shown.
Give bare numbers, in µM.

See these solved cases before continuing.
* CC[C@@H](C(N)=O)N1CCC(C)C1=O (stereo partly drawn) | 19.9
* CCC(C(N)=O)N1C(=O)CCC1(C)C (stereo not drawn) | 63

Batch lookup, IC50 per entry.
1. CC[C@@H](C(N)=O)N1CC(NC(=O)OC)CC1=O (stereo partly drawn)
2. CC[C@@H](C(N)=O)N1C[C@H](CSC)CC1=O
3. CC[C@@H](C(N)=O)N1C[C@H](CCl)CC1=O
4. CC[C@@H](C(N)=O)N1C[C@H](CBr)CC1=O

Result ::
1. 1.58
2. 0.125
3. 0.199
4. 0.251
